Numbers sourced from PubChem BioAssay (NCI).

Test system: UACC-62 melanoma
protocol text: NCI tumour cell line growth inhibition, 48 h
reported property: TGI

Here are 3 compounds together with their reported answers.
compound	TGI
CCOc1c(C#N)c2c(N)ncnc2n1C1OC(CO)C(O)C1O (centres undefined)	10 µM
CCC(=O)NCCc1c2c3c(ccnc3c3ncsc13)-c1ccccc1N2	> 67.1 µM
COc1ccc2nc3n(c2c1)C(c1c(Cl)cccc1Cl)SC3 (centres undefined)	> 100 µM

Specify measured TGI for `CC(=O)O/N=C(Cl)/C(Cl)=N/OC(C)=O` .
> 100 µM

* * *

System: SNB-78 CNS
protocol text: NCI tumour cell line growth inhibition, 48 h
Listed here are molecules together with their documented TGI.

Specify measured TGI for `CC1=NN(C(=O)c2ccc(Cl)cc2)C(=O)/C1=C/c1ccco1` .
> 100 µM

Specify measured TGI for `COc1cc(CC(C(=O)O)C(=O)O)c(OC)cc1CC(C(=O)O)C(=O)O` .
> 100 µM

Specify measured TGI for COC(=O)C(C(=O)C(=O)Nc1ccc(OC)cc1[N+](=O)[O-])c1nc2cc(C)c(C)cc2[nH]c1=O (stereo not given) .
> 100 µM

Specify measured TGI for C=C1C(=O)OC2C1C(OC(=O)/C(C)=C\C)CC1(CO1)C1C(O)C=C(C)C21O (stereo not given) .
34.9 µM

Specify measured TGI for CCCCCCCCCCCCCCCC(=O)OC1C(O)C(CO)OC(OC)C1NC(=O)N(CCCl)N=O (stereo not given) .
40.2 µM

Specify measured TGI for `NC(=Nc1nc(-c2ccccn2)cc2ccccc12)c1ccccn1` .
> 100 µM
